- System: SiHa cells
- ASSAY_DETAILS: […]-GLO cell viability, drugs alone and in combination (Example 4)
- Assay type: cell-based
- CONDITION_NOTES: Homo sapiens; Siha; PAN alone; 72 h; read-out: IC50 PAN
EXPERIMENTAL_ENDPOINT: pIC50
Reminder that pIC50 is minus the log10 of a molar concentration.

So, Cc1[nH]c2ccccc2c1CCNCc1ccc(/C=C/C(=O)NO)cc1 [panobinostat] ? Its pIC50 was 4.75

---

- Tested on: HEC/16E6E7 cells
- ASSAY_DETAILS: […]-GLO cell viability, drugs alone and in combination (Example 4)
- Type: cell-based
- CONDITION_NOTES: HEC/16E6E7; PAN alone; 72 h; read-out: IC50 PAN
EXPERIMENTAL_ENDPOINT: IC50 (µM)
Lab book: enter the figure in µM, no units written.

So, Cc1[nH]c2ccccc2c1CCNCc1ccc(/C=C/C(=O)NO)cc1 ? Its IC50 was 25

---

- System: SiHa cells
- ASSAY_DETAILS: […]-GLO cell viability, drugs alone and in combination (Example 4)
- Assay type: cell-based
- CONDITION_NOTES: Homo sapiens, SiHa, 72 h, read-out: IC50 ART
EXPERIMENTAL_ENDPOINT: pIC50
Reminder that pIC50 is minus the log10 of a molar concentration.

So, C[C@H]1[C@H](OC(=O)CCC(=O)O)O[C@@H]2O[C@@]3(C)CC[C@H]4[C@H](C)CC[C@@H]1[C@@]24OO3 [artesunate] ? Its pIC50 was 5.32
